src = patent US8759010B2

test system: HCVcc Luc-Jc1, genotype 2a/2a; experiment: microbe, parasite or virus in culture; format: cell-based, HCV; details: Hepatitis C virus; hepatocytes or hepatocyte-derived cell lines; FIG. 9; read-out: IC50, inhibition of HCV entry and infection

compound | assayed-system | unit-symbol | IC50
Cc1nc(Nc2ncc(C(=O)Nc3c(C)cccc3Cl)s2)cc(N2CCN(CCO)CC2)n1 [Dasatinib] | HCVcc Luc-Jc1, genotype 2a/2a | nM | 2000
